tested on: MDA-MB-231 breast; assay: NCI tumour cell line growth inhibition, 48 h; in the data active = GI50 below about 0.43 µM; inactive = the rest
# valid calls are TRUE (active), FALSE (inactive); nothing else

> print(dat)
                                   molecule  label
1  COc1ccc([C@@H]2[C@@H](O)C(=O)N2c2cc(OC)c(OC)c(OC)c2)cc1F   TRUE
2  CNC(=O)c1cc(N2CCc3cc(NC(=O)Nc4ccc(N5CCN(C)CC5)c(C(F)(F)F)c4)ccc32)ccn1  FALSE
3  CC1=C(C)C(=O)C(Nc2cccc(C(F)(F)F)c2)=C(Cl)C1=O  FALSE

For the next question, use this molecule.
Asked: Please indicate how the test categorized CCCC(=O)NC(c1cccnc1)c1ccc2c(C)ccnc2c1O (centres undefined) .
Given back: FALSE
